B1: library; numbered along this chain (parent)
chain: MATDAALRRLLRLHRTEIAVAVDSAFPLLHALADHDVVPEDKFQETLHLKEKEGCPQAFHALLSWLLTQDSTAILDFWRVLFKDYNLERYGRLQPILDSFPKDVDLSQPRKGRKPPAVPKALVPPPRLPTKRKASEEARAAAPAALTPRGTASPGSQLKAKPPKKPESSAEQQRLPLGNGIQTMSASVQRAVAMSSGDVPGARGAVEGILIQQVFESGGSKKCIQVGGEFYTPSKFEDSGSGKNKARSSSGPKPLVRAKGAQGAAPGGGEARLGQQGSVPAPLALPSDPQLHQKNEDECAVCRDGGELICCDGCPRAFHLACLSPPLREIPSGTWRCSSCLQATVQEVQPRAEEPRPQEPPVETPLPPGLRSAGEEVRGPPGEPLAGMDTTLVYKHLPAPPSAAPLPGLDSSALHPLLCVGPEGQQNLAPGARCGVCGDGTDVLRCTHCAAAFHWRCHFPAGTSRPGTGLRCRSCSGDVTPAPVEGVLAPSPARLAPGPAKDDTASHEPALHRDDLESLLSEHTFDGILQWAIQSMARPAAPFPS

variants of: B1; test: AIRE transcriptional activation functional score (insulin promoter-GFP; nonsense median 0, synonymous median 1) (normalised score); higher = higher AIRE activity (more reporter activation); settings: with insulin promoter-GFP reporter in HEK293
Mark Not satisfied for AIRE transcriptional activation functional score values under 0.8, and Satisfied for everything at or above.

Check out these entries, answers already filled in.
Mutation label: G477T
Category label: Not satisfied

Mutation label: P162Q
Category label: Satisfied

Mutation label: V345E
Category label: Satisfied

Check if AIRE transcriptional activation functional score >= 0.8 (inclusive). Item: V345D
Satisfied

Data credit: the supplement of paper PMC12667976
